- SYSTEM TESTED: GTPase HRas (Homo sapiens) (UniProt P01112)
- Sequence (P01112 whole entry, looked up): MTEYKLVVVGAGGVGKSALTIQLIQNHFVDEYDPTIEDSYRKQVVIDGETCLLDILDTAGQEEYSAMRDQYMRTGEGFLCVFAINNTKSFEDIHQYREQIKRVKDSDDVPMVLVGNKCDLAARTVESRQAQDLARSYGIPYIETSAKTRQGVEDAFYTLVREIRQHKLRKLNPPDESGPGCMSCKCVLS
- EXPERIMENTAL PROTOCOL: Ras wt fluorescent GTP loading blockade – biochemical, wildtype, multiplex bead flow cytometry, dose response (AID 1335)
- TEST SETTINGS: bead-based flow cytometry, Bodipy-GTP binding to GST-Ras; at 100 µM (top of the series) unless noted
MEASURE: GTP binding, percent of control

INSERT INTO measurements (compound, measure, assay_result) VALUES
  ('N#Cc1c(Nc2ccccc2)c(/C=N/N=C/c2ccccc2)c[nH]c1=O', 'GTP binding, percent of control', '81.7%'),
  ('COc1ccc(CN2CCN(CCc3ccccc3)C(CCO)C2)c(O)c1 (centres undefined)', 'GTP binding, percent of control', '82.3%'),
  ('COc1ccc(CC2(CO)CCN(S(=O)(=O)c3sccc3C)CC2)cc1', 'GTP binding, percent of control', '82.2%'),
  ('CCOC(=O)c1nc(Nc2ccc(C(C)=O)cc2)c2ccccc2n1', 'GTP binding, percent of control', '80.4%');

###

- EXPERIMENTAL PROTOCOL: cytosolic pH regulators acting via V-ATPase – S. cerevisiae, pHLuorin, HTS validation (AID 504600);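 note: plate controls were DMSO for no effect and reference compound for full effect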
- TEST SETTINGS: V-ATPase proton transport, at 10 µM
Active and inactive are the calls of the source. No stated cut-off is given here; in the data, active means response above about 15%; inactive means the rest.
Labels: T for active, F for inactive

INSERT INTO results (compound, assigned_category) VALUES
  ('Nc1ccc2cn[nH]c2c1', 'F'),
  ('O=C(O)c1ccc(C(=O)C(=O)c2ccccc2)cc1', 'F'),
  ('COc1ccccc1/C=C/C(=O)OCCN1CCOCC1', 'F'),
  ('CCOC(=O)C1=C(N)Oc2c(c(=O)[nH]c3ccccc23)C1c1ccccc1 (stereo unspecified)', 'F'),
  ('NS(=O)(=O)c1ccc(CNC(=O)c2cc(-c3ccccc3)nc3ccccc23)cc1', 'F'),
  ('CCOC(=O)C(Cc1cc(C(C)=O)ccc1OC(C)C)C(=O)OCC', 'F'),
  ('c1ccc(Nc2cccc3c(Nc4ccccc4)cccc23)cc1', 'F'),
  ('COc1cc2c(cc1OC)C1(CCCC1)CNC2c1cccc([N+](=O)[O-])c1 (stereo unspecified)', 'T'),
  ('O=C(O)c1ccccc1C(=O)OCCCCOC(=O)c1ccccc1C(=O)O', 'F'),
  ('COc1cc2c(cc1NCc1ccc3c(c1)OCO3)oc1ccccc12', 'F'),
  ('O=C(NCCN1CCN(c2ccccc2)CC1)c1cccc(Br)c1', 'F'),
  ('CCN(CC)C(=O)N1CCN(C)CC1', 'F'),
  ('O=C(OCCN1CCOCC1)c1cccs1', 'F'),
  ('COc1ccc(C(C)N2CC34C=CC(O3)C(C(=O)OCC(C)C)C4C2=O)cc1 (stereo unspecified)', 'F'),
  ('CC(C)CCNC(=O)[C@H](CC(C)C)NC(=O)[C@H]1O[C@@H]1C(=O)O', 'F'),
  ('C1COC(NC(C2CC2)C2CC2)=N1', 'F');

###

- SYSTEM TESTED: Integrin beta-1 (Homo sapiens) + Integrin alpha-4 (Homo sapiens) (UniProt P13612+P05556)
- Sequence (P05556 whole entry, looked up): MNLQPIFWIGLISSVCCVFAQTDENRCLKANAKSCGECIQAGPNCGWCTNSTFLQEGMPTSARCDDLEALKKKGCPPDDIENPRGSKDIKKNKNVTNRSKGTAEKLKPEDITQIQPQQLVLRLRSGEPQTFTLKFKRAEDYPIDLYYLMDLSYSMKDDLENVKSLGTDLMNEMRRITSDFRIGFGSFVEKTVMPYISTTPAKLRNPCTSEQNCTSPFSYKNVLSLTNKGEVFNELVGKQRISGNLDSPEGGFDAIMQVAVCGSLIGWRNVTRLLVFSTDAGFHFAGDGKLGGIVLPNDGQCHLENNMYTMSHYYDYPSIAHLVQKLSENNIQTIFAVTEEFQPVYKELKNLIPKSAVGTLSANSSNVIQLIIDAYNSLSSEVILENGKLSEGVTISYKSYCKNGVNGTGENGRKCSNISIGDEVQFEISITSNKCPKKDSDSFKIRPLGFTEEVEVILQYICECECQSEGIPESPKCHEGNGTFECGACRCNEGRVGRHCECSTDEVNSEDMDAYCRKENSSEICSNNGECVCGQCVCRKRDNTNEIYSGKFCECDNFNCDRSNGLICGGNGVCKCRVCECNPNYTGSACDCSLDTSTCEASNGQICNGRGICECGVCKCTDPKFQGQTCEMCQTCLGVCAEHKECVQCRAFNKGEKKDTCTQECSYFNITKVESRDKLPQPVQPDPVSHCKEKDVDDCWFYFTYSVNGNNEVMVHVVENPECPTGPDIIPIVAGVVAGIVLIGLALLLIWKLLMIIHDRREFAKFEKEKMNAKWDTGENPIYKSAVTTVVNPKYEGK
- Sequence (P13612 whole entry, looked up): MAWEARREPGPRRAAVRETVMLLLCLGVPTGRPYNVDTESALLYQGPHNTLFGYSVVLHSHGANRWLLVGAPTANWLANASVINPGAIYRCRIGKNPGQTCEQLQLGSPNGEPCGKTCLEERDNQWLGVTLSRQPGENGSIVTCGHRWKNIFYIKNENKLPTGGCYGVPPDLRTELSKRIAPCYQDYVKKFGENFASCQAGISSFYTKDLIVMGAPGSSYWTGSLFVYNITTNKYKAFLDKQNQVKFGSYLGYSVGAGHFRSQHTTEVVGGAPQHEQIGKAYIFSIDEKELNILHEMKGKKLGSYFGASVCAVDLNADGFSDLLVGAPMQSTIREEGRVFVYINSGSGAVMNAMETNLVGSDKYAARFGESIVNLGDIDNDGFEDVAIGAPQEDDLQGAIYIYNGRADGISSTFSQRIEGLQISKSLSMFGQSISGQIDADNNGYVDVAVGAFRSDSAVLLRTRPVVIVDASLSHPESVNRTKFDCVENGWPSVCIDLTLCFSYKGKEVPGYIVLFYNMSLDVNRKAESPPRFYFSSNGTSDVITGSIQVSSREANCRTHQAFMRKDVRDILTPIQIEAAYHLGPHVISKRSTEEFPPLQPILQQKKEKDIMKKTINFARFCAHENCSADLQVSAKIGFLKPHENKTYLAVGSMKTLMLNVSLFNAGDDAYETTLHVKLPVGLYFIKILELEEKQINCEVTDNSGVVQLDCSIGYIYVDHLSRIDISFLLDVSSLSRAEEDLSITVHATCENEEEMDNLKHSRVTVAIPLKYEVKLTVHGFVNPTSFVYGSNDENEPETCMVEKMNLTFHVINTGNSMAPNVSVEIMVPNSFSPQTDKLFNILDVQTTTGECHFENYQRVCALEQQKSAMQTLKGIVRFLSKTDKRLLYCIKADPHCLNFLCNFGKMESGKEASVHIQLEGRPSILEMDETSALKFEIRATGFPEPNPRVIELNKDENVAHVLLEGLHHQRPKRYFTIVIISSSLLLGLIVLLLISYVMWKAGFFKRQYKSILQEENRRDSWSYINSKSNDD
- EXPERIMENTAL PROTOCOL: alpha4beta1 integrin LIBS antibody binding reduction – U937 cells, HUTS-21 mAb, flow cytometry, validation set, VLA-4 allosteric modulator project, pilot screen (AID 2674);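 note: antibody binding induced by the VLA-4 ligand LDV present at three times its Kd; 0% = LDV ligand with antibody and no compound and 100% = antibody without LDV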
- TEST SETTINGS: HUTS-21 LIBS mAb binding, at 6.7 µM, stronger effect = higher value, binding induced by LDV ligand
Square brackets hold non-standard residues; d marks the D form. Peptide text beside a SMILES is read from it. ξ: configuration not given here. ξV = CC(C)C(N)C(=O)O
Here the recorded inhibition is given for each entry.
MEASURE: inhibition (%)

INSERT INTO assay_data (molecule, assay_result) VALUES
  ('COc1ccc(CCNC(=O)c2ccc(Cl)cc2)cc1OC', 2.93),
  ('COc1ccc(CN2CCCCC2C(=O)Nc2ccc(OC)c(OCC(C)C)c2)cc1OC (stereo unspecified)', -0.45),
  ('C[C@H]([C@@H](N)C(=O)N[C@@H](C(=O)O)[C@@H]1O[C@H](n2ccc(=O)[nH]c2=O)[C@@H](O)[C@H]1O)[C@@H](O)c1ccc(O)cn1', -9.06),
  ('O=C(COc1ccc2c(-c3ccccc3)cc(=O)oc2c1)NCc1cccs1', -3.67),
  ('COc1ccc(C2CC(c3ccc([N+](=O)[O-])cc3)=NN2C(=O)c2ccccc2)cc1OC (stereo unspecified)', 13.4),
  ('NC(=O)c1ccccc1O', 11.1),
  ('CC[N+](C)(C)c1cccc(O)c1', -0.45),
  ('Clc1ccc2c(c1)CCc1cccnc1C2=C1CCNCC1', 3.7),
  ('C[C@]12CCC3C(CC=C4C[C@@H](O)CC[C@@]43C)C1CCC2[C@]1(C)CCC(=O)O1 (stereo partly specified)', 0.94),
  ('CC(=O)CCCCn1c(=O)c2c(ncn2C)n(C)c1=O', 12),
  ('O=c1[nH]cc(F)c(=O)[nH]1', -45),
  ('CN1CCN(C2=Nc3ccccc3Oc3ccc(Cl)cc32)CC1', 4.52),
  ('COc1ccc(C(=O)NCc2cccnc2)cc1', 11.9),
  ('COc1ccc2oc(C)c(C(N)=O)c2c1', 6.4),
  ('Cc1ccccc1C(=O)NNc1ncnc2c1cnn2C', 3.99),
  ('O=C(NC(=S)N1CCCCC1)c1cccnc1', 11),
  ('CC(=O)N(CCC1(c2ccc(C)cc2)CCOC(C(C)C)C1)Cc1ccco1 (stereo unspecified)', -16.8),
  ('NNC(=O)c1ccncc1', -14.1),
  ('O=C(O)c1ccccc1C(=O)OCCCCOC(=O)c1ccccc1C(=O)O', -0.45),
  ('c1coc(-c2nnc3n2C2(CCCC2)Cc2ccccc2-3)c1', 25.9),
  ('CCOC(=O)C1C(=O)OC2(CCOC(C)(C)C2)C1C(=O)OCC (stereo unspecified)', 10.5),
  ('Cc1oncc1C(=O)Nc1ccc(C(F)(F)F)cc1', 3.99),
  ('CC(=O)NC(C(=O)NCC(N)=O)C(C)C (stereo unspecified) (Ac-[ξV]-Gly-NH2)', -7.72),
  ('CCOC(=O)C1=C(N)Oc2c(c(=O)[nH]c3ccccc23)C1c1ccccc1 (stereo unspecified)', 0.94),
  ('COc1ccc(CCN=CC2=C(O)CC(C)(C)CC2=O)cc1', -2.53),
  ('Cc1ccc2c(CC(=O)O)coc2c1', -0.45),
  ('Cn1c(=O)c2c(ncn2CCO)n(C)c1=O', -32.3),
  ('O=C(Cc1ccccc1[N+](=O)[O-])NCc1ccncc1', 6.4),
  ('COc1cc2[nH]c3c(=O)n(CCN4CCOCC4)cnc3c2cc1OC', -7.25),
  ('Nc1c(C(=O)c2ccccc2)oc2ccccc12', -2.53),
  ('COC(=O)c1cc(COc2ccc3ccc(=O)oc3c2)c(C)o1', -15.8),
  ('COc1cc(CNCCc2c[nH]c3ccccc23)cc(Cl)c1OCC(N)=O', -7.25),
  ('Cc1ccccc1C(=O)NCC(=O)O', 0.25),
  ('Cc1cccc2c(=O)n3c(nc12)CCCCC3', -14.5),
  ('CCCCN(CCCC)CCCOC(=O)c1ccc(N)cc1', 0.64),
  ('O=[N+]([O-])c1ccc(O)c2ncccc12', -1.12);

Cited source for all entries: PubChem BioAssay
